# Target desc: T1, IL-18 receptor (IL-18Rα/IL-18Rβ) on cells (HEK-Blue IL18R reporter cells, NK-92, KG-1) (human, UniProt Q13478 19-541; O95256 20-599)
# T1 sequence (looked up) 1: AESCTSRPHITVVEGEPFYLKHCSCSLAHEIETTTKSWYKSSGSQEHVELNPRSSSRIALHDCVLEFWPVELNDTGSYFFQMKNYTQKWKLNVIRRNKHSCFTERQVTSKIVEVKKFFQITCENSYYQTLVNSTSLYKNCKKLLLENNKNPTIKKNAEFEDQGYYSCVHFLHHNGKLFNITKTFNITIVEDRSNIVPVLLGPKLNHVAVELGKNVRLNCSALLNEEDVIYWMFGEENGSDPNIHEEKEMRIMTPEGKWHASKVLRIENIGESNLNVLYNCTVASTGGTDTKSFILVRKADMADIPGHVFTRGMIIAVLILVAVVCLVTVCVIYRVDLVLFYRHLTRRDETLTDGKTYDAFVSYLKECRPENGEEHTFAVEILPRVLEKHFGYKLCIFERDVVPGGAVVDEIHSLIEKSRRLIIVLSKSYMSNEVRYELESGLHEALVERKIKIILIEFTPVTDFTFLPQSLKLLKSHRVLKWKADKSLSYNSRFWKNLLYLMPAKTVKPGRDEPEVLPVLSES
# T1 sequence (looked up) 2: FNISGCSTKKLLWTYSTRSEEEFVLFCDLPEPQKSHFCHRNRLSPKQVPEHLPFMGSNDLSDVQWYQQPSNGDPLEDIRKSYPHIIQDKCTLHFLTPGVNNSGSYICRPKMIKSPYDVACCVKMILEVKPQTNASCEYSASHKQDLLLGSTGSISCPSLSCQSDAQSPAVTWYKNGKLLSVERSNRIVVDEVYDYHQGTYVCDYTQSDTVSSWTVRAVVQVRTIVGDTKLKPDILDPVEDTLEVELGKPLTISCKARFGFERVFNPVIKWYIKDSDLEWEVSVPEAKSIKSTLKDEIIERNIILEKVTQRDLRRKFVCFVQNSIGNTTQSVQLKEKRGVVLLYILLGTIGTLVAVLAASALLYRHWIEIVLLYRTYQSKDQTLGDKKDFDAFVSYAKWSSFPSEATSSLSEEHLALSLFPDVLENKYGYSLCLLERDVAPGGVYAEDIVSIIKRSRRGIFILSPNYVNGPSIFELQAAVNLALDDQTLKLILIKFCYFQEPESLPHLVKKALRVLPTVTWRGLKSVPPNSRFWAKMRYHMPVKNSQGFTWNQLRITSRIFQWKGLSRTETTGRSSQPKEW
# Assay explanation: cell-based or functional assay
Measurement kind: EC50, HEK-Blue IL18R reporter cells (pM)
Numbers only, in pM.

Illustrative cases are given below, each with its answer.
Read the entry IL-18 polypeptide C174 (ligand, also called K8L, E6K, V11I, C38A, K53A, T63A, C76A, C127A) YFGKLKSLLSIIRNLNDQVLFIDQGNRPLFEDMTDSDARDNAPRTIFIISMYADSQPRGMAVAISVKCEKISTLSAENKIISFKEMNPPDNIKDTKSDIIFFQRSVPGHDNKMQFESSSYEGYFLAAEKERDLFKLILKKEDELGDRSIMFTVQNED and write its reported EC50, HEK-Blue IL18R reporter cells. 0.29

Read the entry IL-18 polypeptide of SEQ ID NO: 62 (E6K, C38A, K53A, C127A) (ligand) YFGKLKSKLSVIRNLNDQVLFIDQGNRPLFEDMTDSDARDNAPRTIFIISMYADSQPRGMAVTISVKCEKISTLSCENKIISFKEMNPPDNIKDTKSDIIFFQRSVPGHDNKMQFESSSYEGYFLAAEKERDLFKLILKKEDELGDRSIMFTVQNED and write its reported EC50, HEK-Blue IL18R reporter cells. 0.17

Attention now shifts to the item below.
Read the entry IL-18 polypeptide C166 (ligand, also called V11I, C38A, S55T, C76A, C127A) YFGKLESKLSIIRNLNDQVLFIDQGNRPLFEDMTDSDARDNAPRTIFIISMYKDTQPRGMAVTISVKCEKISTLSAENKIISFKEMNPPDNIKDTKSDIIFFQRSVPGHDNKMQFESSSYEGYFLAAEKERDLFKLILKKEDELGDRSIMFTVQNED and write its reported EC50, HEK-Blue IL18R reporter cells. 4.73
